Values compiled from patent US20220347173A1.

- System: CDAHFD rat model of non-alcoholic steatohepatitis (NASH)
- assay: Rat choline-deficient, amino acid-defined high fat diet (CDAHFD) model of NASH
- Assay type: in vivo, Male Wistar rats
- conditions used: 30 mg/kg BID; p<0.05
parameter: Liver Weight (as a percent of total weight) (%)

compound: Cc1nc(-c2ccccc2F)c(C(=O)NC(Cc2ccccc2)C(=O)C(N)=O)o1 (stereo not shown)
unit info: %
value observed: 6.6

###

- Test system: CDAHFD rat model of non-alcoholic steatohepatitis (NASH)
- assay: Rat choline-deficient, amino acid-defined high fat diet (CDAHFD) model of NASH
- Type: in vivo, Male Wistar rats
- conditions used: 100 mg/kg BID; p<0.05
parameter: Liver Weight (as a percent of total weight) (%)

compound: Cc1nc(-c2ccccc2F)c(C(=O)NC(Cc2ccccc2)C(=O)C(N)=O)o1 (stereo not shown)
value observed: 6.6
